Listed below: IC50 values for each entry.
- Test system: 616215-338-R-J1-PDC tumor spheroids, viability
- procedureSummary: Anticancer human tumor 616215-338-R-J1-PDC patient-derived colon adenocarcinoma cell line growth inhibition [GQUAD]
- protocolConditions: curve of first compound; second compound 10 µM; spheroids with HUVEC and MSC

Some compounds with known IC50 results, for comparison:
>>> measurement("CCCS(=O)(=O)Nc1ccc(F)c(C(=O)c2c[nH]c3ncc(-c4ccc(Cl)cc4)cc23)c1F + Cc1cnc(CNC(=O)c2c(=O)c3ccc(N4CCCN(C)CC4)nc3n3c2sc2ccccc23)cn1")
"< 31.6 nM"
>>> measurement("COc1ccc([C@@H](O)c2cc(-c3ncnc4cc(N5CCOCC5)ccc34)c(F)cc2Cl)nn1 + Cc1cnc(CNC(=O)c2c(=O)c3ccc(N4CCCN(C)CC4)nc3n3c2sc2ccccc23)cn1")
"< 31.6 nM"
>>> measurement("CCc1c2c(nc3ccc(O)cc13)-c1cc3c(c(=O)n1C2)COC(=O)[C@]3(O)CC + Cc1cnc(CNC(=O)c2c(=O)c3ccc(N4CCCN(C)CC4)nc3n3c2sc2ccccc23)cn1")
"< 0.999 nM"

Which value of IC50 has been reported for Cn1ncnc1[C@H]1c2n[nH]c(=O)c3cc(F)cc(c23)N[C@@H]1c1ccc(F)cc1 + CN(C)c1ccc(Nc2c3ccc(NC(=O)CCN4CCCC4)cc3nc3cc(NC(=O)CCN4CCCC4)ccc23)cc1 in the records?
> 316 nM

----------
- Test system: 616215-338-R-J1-PDC tumor spheroids, viability
- procedureSummary: Anticancer human tumor 616215-338-R-J1-PDC cell line growth inhibition [GQUAD];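 note: spheroids exposed to agents for 7 days before readout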
- protocolConditions: curve of first compound; second compound 0.316 µM; spheroids with HUVEC and MSC
measuredQuantity: IC50

These recorded examples may help you get a feel for the data.
>>> measurement("CC(C)n1c(=O)n(C)c2cnc3cc(F)c(-c4ccc(OCCCN5CCCCC5)nc4)cc3c21 + CN(C)c1ccc(Nc2c3ccc(NC(=O)CCN4CCCC4)cc3nc3cc(NC(=O)CCN4CCCC4)ccc23)cc1")
"> 10000 nM"
>>> measurement("CCc1c2c(nc3ccc(O)cc13)-c1cc3c(c(=O)n1C2)COC(=O)[C@]3(O)CC + CN(C)c1ccc(Nc2c3ccc(NC(=O)CCN4CCCC4)cc3nc3cc(NC(=O)CCN4CCCC4)ccc23)cc1")
"14.6 nM"

Name the recorded IC50 for Cn1ncnc1[C@H]1c2n[nH]c(=O)c3cc(F)cc(c23)N[C@@H]1c1ccc(F)cc1 + CN(C)c1ccc(Nc2c3ccc(NC(=O)CCN4CCCC4)cc3nc3cc(NC(=O)CCN4CCCC4)ccc23)cc1 .
> 316 nM

----------
- System: 616215-338-R-J1-PDC tumor spheroids, viability
- procedureSummary: Anticancer human tumor 616215-338-R-J1-PDC cell line growth inhibition [GQUAD];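 note: spheroids exposed to agents for 7 days before readout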
- protocolConditions: curve of first compound; second compound 3.16 µM; spheroids with HUVEC and MSC
measuredQuantity: IC50 (nM)
Provide the reading as a plain figure in nM.

What IC50 value was documented for this compound, CC1COCCN1c1cc(-c2ccnn2C)c2ccnc(-c3ccn[nH]3)c2n1 (centres undefined) + CN(C)c1ccc(Nc2c3ccc(NC(=O)CCN4CCCC4)cc3nc3cc(NC(=O)CCN4CCCC4)ccc23)cc1 ?
129

Reported IC50, compound COc1cccc2c1C(=O)c1c(O)c3c(c(O)c1C2=O)CC(O)(C(=O)CO)CC3OC1CC(N)C(O)C(C)O1 (centres undefined) + Cc1[nH]c2ccc(F)cc2c1-c1nc2c3cccnc3c3ncccc3c2[nH]1 : ____
506

Tell me the measured IC50 of C#Cc1c(F)ccc2cc(O)cc(-c3ncc4c(N5CC6CCC(C5)N6)nc(OCC56CCCN5CC(F)C6)nc4c3F)c12 (centres undefined) + CN(C)c1ccc(Nc2c3ccc(NC(=O)CCN4CCCC4)cc3nc3cc(NC(=O)CCN4CCCC4)ccc23)cc1 , please.
8570

Dear colleague, I am looking for the recorded IC50 of the following compound: COc1cccc2c1C(=O)c1c(O)c3c(c(O)c1C2=O)CC(O)(C(=O)CO)CC3OC1CC(N)C(O)C(C)O1 (centres undefined) + CN(C)c1ccc(Nc2c3ccc(NC(=O)CCN4CCCC4)cc3nc3cc(NC(=O)CCN4CCCC4)ccc23)cc1
511

I'd like to know its IC50. The compound in question is CC1COCCN1c1cc(C2(O)CC3CCC(C2)O3)c2cnn(-c3ccn[nH]3)c2n1 (centres undefined) + Cc1[nH]c2ccc(F)cc2c1-c1nc2c3cccnc3c3ncccc3c2[nH]1
176

----------
Measured viability, T/C, listed per entry.
- System: 616215-338-R-J1-PDC tumor spheroids, viability
- procedureSummary: Anticancer human tumor 616215-338-R-J1-PDC cell line growth inhibition [GQUAD];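 note: spheroids exposed to agents for 7 days before readout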;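 for viability, T/C: percent viability relative to DMSO vehicle control wells taken as 100%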
- protocolConditions: second compound 0.1 µM; first compound 0.0999 µM; stronger effect = lower value; spheroids with HUVEC and MSC
Answer in %, number only, no unit symbol.

>>> measurement("Cc1[nH]c2ccccc2c1CCNCc1ccc(/C=C/C(=O)NO)cc1 + Cc1cnc(CNC(=O)c2c(=O)c3ccc(N4CCCN(C)CC4)nc3n3c2sc2ccccc23)cn1")
54.4
>>> measurement("CC[C@@]1(O)C(=O)OCc2c1cc1n(c2=O)Cc2cc3c(CN(C)C)c(O)ccc3nc2-1 + Cc1cnc(CNC(=O)c2c(=O)c3ccc(N4CCCN(C)CC4)nc3n3c2sc2ccccc23)cn1")
54.1
>>> measurement("CCc1c2c(nc3ccc(O)cc13)-c1cc3c(c(=O)n1C2)COC(=O)[C@]3(O)CC + Cc1cnc(CNC(=O)c2c(=O)c3ccc(N4CCCN(C)CC4)nc3n3c2sc2ccccc23)cn1")
18.2

# next compound below
Need viability, T/C, item CC[C@@]1(O)C(=O)OCc2c1cc1n(c2=O)Cc2cc3c(CN(C)C)c(O)ccc3nc2-1 + CN(C)c1ccc(Nc2c3ccc(NC(=O)CCN4CCCC4)cc3nc3cc(NC(=O)CCN4CCCC4)ccc23)cc1
87.2

----------
- System: 616215-338-R-J1-PDC tumor spheroids, viability
- procedureSummary: Anticancer human tumor 616215-338-R-J1-PDC cell line growth inhibition [GQUAD];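 note: spheroids exposed to agents for 7 days before readout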;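 for viability, T/C: percent viability relative to DMSO vehicle control wells taken as 100%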
- protocolConditions: second compound 10 µM; first compound 3.16 µM; stronger effect = lower value; spheroids with HUVEC and MSC
measuredQuantity: viability, T/C (%)
Could you give me the number in %? Just the number is fine.

>>> measurement("C#Cc1c(F)ccc2cc(O)cc(-c3ncc4c(N5CC6CCC(C5)N6)nc(OCC56CCCN5CC(F)C6)nc4c3F)c12 (stereo unspecified) + Cc1[nH]c2ccc(F)cc2c1-c1nc2c3cccnc3c3ncccc3c2[nH]1")
60.8

# get_value(readout='viability, T/C', item= Cc1cccc(N(C)C(=O)C2C(O)CCN2c2nc(C)cc(C(F)(F)F)c2C#N)c1 (stereo unspecified) + CN(C)c1ccc(Nc2c3ccc(NC(=O)CCN4CCCC4)cc3nc3cc(NC(=O)CCN4CCCC4)ccc23)cc1 )
49

I'd like to know its viability, T/C. The compound in question is COc1cccc2c1C(=O)c1c(O)c3c(c(O)c1C2=O)CC(O)(C(=O)CO)CC3OC1CC(N)C(O)C(C)O1 (stereo unspecified) + CN(C)c1ccc(Nc2c3ccc(NC(=O)CCN4CCCC4)cc3nc3cc(NC(=O)CCN4CCCC4)ccc23)cc1
20.5

For the compound COc1cccc2c1C(=O)c1c(O)c3c(c(O)c1C2=O)CC(O)(C(=O)CO)CC3OC1CC(N)C(O)C(C)O1 (stereo unspecified) + Cc1[nH]c2ccc(F)cc2c1-c1nc2c3cccnc3c3ncccc3c2[nH]1 , what viability, T/C is on record?
20.1

Which viability, T/C is listed for CCCS(=O)(=O)Nc1ccc(F)c(C(=O)c2c[nH]c3ncc(-c4ccc(Cl)cc4)cc23)c1F + Cc1[nH]c2ccc(F)cc2c1-c1nc2c3cccnc3c3ncccc3c2[nH]1 ?
76.8

Value lookup for viability, T/C; key = CC(C)n1c(=O)n(C)c2cnc3cc(F)c(-c4ccc(OCCCN5CCCCC5)nc4)cc3c21 + CN(C)c1ccc(Nc2c3ccc(NC(=O)CCN4CCCC4)cc3nc3cc(NC(=O)CCN4CCCC4)ccc23)cc1
61.6

Give the measured viability, T/C of CC(C)(O)C1CCC(Nc2ccc3ncc(-c4cccc(C(F)(F)F)c4)n3n2)CC1 (stereo unspecified) + Cc1cnc(CNC(=O)c2c(=O)c3ccc(N4CCCN(C)CC4)nc3n3c2sc2ccccc23)cn1 .
0.22

What viability, T/C value was documented for this compound, Cc1cccc(N(C)C(=O)C2C(O)CCN2c2nc(C)cc(C(F)(F)F)c2C#N)c1 (stereo unspecified) + Cc1[nH]c2ccc(F)cc2c1-c1nc2c3cccnc3c3ncccc3c2[nH]1 ?
107

Which value of viability, T/C has been reported for COc1ccc([C@@H](O)c2cc(-c3ncnc4cc(N5CCOCC5)ccc34)c(F)cc2Cl)nn1 + Cc1cnc(CNC(=O)c2c(=O)c3ccc(N4CCCN(C)CC4)nc3n3c2sc2ccccc23)cn1 in the records?
15.4

GET /values?readout=viability, T/C&item= CC1COCCN1c1cc(C2(S(C)(=N)=O)CC2)nc(-c2ccnc3[nH]ccc23)n1 (stereo unspecified) + CN(C)c1ccc(Nc2c3ccc(NC(=O)CCN4CCCC4)cc3nc3cc(NC(=O)CCN4CCCC4)ccc23)cc1
51.7

So what does the record say about viability, T/C for CC1COCCN1c1cc(-c2ccnn2C)c2ccnc(-c3ccn[nH]3)c2n1 (stereo unspecified) + CN(C)c1ccc(Nc2c3ccc(NC(=O)CCN4CCCC4)cc3nc3cc(NC(=O)CCN4CCCC4)ccc23)cc1 ?
19.7

Hello, the source for this data is PubChem BioAssay AID2060493, in case you need it.
